Quick reference: pIC50 of the listed items.
Biological target: JAK3 enzyme (Homo sapiens (Human))
Experiment: JAK Caliper Enzyme Assay at 4 μM or 1 mM ATP
Format: biochemical
Details: read-out: JAK3 (4 μM ATP) IC50; 4 μM ATP
pIC50: −log10 of the molar value.
MEASUREMENT KIND: pIC50

COMPOUND	RECORDED VALUE
C=CC(=O)N1CCC(Oc2cnc3[nH]cc(-c4cnn(C)c4)c3n2)CC1 [Example 218]	9.22
C=CC(=O)N1CCC(Nc2cnc3[nH]cc(C(=O)NCC4(O)CCCC4)c3n2)CC1 [Example 232]	9.52
C=CC(=O)N1CCCC(Nc2ncnc3[nH]ccc23)C1 (centres unmarked) [Example 103]	8.33
C=C(C)C(=O)N1CCC[C@@H](Nc2ncnc3[nH]cc(CCO)c23)C1 [Example 152]	5.37
C=C(C(=O)N1CC[C@@H]2CCN(c3ncnc4[nH]ccc34)[C@@H]2C1)C(F)(F)F [Example 41]	9.00
C=CC(=O)N1CCC[C@@H](Nc2ncnc3[nH]cc(CC)c23)C1 [Example 44]	9.52
C=CC(=O)N1CCC(Nc2cnc3[nH]cc(C(=O)N[C@H](C)COC)c3n2)CC1 [Example 268]	9.52
C=CC(=O)N1CCC(Oc2cnc3[nH]cc(-c4c(C)noc4C)c3n2)CC1 [Example 224]	7.75

====

Target: JAK3 enzyme (Homo sapiens (Human), UniProt P52333)
Sequence (P52333 whole entry, species assumed): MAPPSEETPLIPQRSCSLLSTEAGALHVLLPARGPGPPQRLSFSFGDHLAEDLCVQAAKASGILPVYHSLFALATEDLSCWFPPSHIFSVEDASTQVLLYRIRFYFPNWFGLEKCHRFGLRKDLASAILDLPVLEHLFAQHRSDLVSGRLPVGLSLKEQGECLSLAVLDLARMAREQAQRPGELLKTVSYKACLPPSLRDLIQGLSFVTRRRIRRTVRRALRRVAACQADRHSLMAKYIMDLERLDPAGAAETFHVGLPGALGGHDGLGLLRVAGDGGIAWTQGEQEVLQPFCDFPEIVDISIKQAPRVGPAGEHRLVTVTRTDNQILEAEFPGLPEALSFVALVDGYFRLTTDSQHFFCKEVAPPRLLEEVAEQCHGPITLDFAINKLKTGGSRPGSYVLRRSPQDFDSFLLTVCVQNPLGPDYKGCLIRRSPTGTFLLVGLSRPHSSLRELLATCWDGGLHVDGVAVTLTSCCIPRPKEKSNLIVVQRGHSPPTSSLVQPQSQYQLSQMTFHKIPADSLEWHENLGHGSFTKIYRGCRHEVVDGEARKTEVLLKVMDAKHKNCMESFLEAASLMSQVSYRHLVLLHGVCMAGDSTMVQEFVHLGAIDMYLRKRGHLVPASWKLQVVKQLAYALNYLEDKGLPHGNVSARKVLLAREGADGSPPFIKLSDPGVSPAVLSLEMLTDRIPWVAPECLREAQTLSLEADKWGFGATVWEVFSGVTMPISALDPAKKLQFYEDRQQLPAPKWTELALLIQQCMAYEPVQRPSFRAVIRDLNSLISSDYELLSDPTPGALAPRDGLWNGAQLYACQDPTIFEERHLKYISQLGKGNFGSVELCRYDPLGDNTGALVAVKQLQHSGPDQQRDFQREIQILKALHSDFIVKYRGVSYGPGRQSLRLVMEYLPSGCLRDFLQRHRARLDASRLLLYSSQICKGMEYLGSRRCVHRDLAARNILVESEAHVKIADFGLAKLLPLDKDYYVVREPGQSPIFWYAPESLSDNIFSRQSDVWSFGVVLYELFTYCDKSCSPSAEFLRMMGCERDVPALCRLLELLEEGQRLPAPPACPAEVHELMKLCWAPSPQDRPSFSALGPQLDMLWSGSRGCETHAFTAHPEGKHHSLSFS
Experiment: JAK Caliper Enzyme Assay at 4 μM or 1 mM ATP
Type: biochemical
Settings: read-out: JAK3 (1 mM ATP) IC50; 1 mM ATP
pIC50: −log10 of the molar value.

MOLECULE	SIGN	pIC50
N#CC(C(=O)N1CCC[C@@H](Nc2ncnc3[nH]ccc23)C1)=C1CCOCC1 [Example 101]	<	5.00
C=CC(=O)N1CC2(C1)CN(c1cnc3[nH]cc(C(=O)NC(C)C)c3n1)C2C (stereo not drawn) [Example 322]	=	5.46
C=CC(=O)N1CCC(CNc2cnc3[nH]cc(C(=O)NC(C)C)c3n2)CC1 [Example 193]	=	5.64
C=CC(=O)N1CCC(Nc2cnc3[nH]cc(C(=O)NC[C@H](C)CC(F)(F)F)c3n2)CC1 [Example 241]	=	8.14
C=CC(=O)N1CCC[C@@H](Nc2ncnc3[nH]cc(C)c23)C1 [Example 43]	=	7.00
COCCc1c[nH]c2ncnc(N[C@@H]3CCCN(C(=O)/C=C/CN(C)C)C3)c12 [Example 108]	<	5.00
C=CC(=O)c1c[nH]c2ncnc(N[C@H]3CN(C(=O)C=C)CC[C@H]3F)c12 [Example 120]	<	8.00
C=CC(=O)N1CCC(Nc2cnc3[nH]cc(C(=O)N[C@@H]4CCC[C@@H]4F)c3n2)CC1 [Example 251]	=	8.09
C=CC(=O)N1CC[C@@H](O)[C@@H](Nc2ncnc3[nH]ccc23)C1 (racemic) [Example 64]	=	6.00
C=CC(=O)N1CCC[C@@H](Nc2ncnc3[nH]cc(CCOC)c23)C1 [Example 46]	=	6.52
C=CC(=O)N1CC[C@H](Nc2cnc3[nH]cc(C(=O)NC(C)C)c3n2)C1 [Example 171]	=	7.49
C=C(CO)C(=O)N1CCC[C@@H](Nc2ncnc3[nH]ccc23)C1 [Example 93]	<	5.00
C=CC(=O)N1C[C@H](O)C[C@@H](Nc2ncnc3[nH]ccc23)C1 [Example 60]	=	6.22
O=C(/C=C\CO)N1CCC[C@@H](Nc2ncnc3[nH]ccc23)C1 [Example 100]	<	5.00
C=CC(=O)N1CCC[C@@H](Nc2ncnc3[nH]cc(F)c23)C1 [Example 42]	=	7.03
C=CC(=O)N1CCC(Nc2cnc3[nH]cc(C(=O)NCCCC#N)c3n2)CC1 [Example 242]	=	7.97
C=CC(=O)N1CCC(Nc2cnc3[nH]cc(-c4ccc(C)nc4)c3n2)CC1 [Example 199]	=	7.00
C=CC(=O)N1CCC(Nc2cnc3[nH]cc(C(=O)NCCOC)c3n2)CC1 [Example 275]	=	7.88
